Assay: Inhibition of Hsp90
pIC50: −log10 of the molar value.
OUTCOME_MEASURE: pIC50

Use these answered entries as a reference point.
[
  {
    "COMPOUND": "C[C@@H]1C[C@H]2O[C@@H]2C=C/C=C/C(=O)Cc2c(Cl)c(O)cc(O)c2C(=O)O1 [RADICICOL]",
    "pIC50": "> 7.00"
  },
  {
    "COMPOUND": "COC1=C2C[C@@H](C)C[C@H](OC)[C@H](O)[C@@H](C)/C=C(\\C)[C@H](OC(N)=O)[C@@H](OC)/C=C\\C=C(/C)C(=O)NC(=CC1=O)C2=O (stereo in doubt) [GELDANAMYCIN]",
    "pIC50": "> 7.00"
  }
]

In the following, a different compound is considered.
## Task For the compound shown here, CC(C)=CCc1c(O)cc2occ(-c3ccc4c(c3)OCO4)c(=O)c2c1O [DERRUBONE] , give the reported pIC50.
## Result 6.64
